Test system: TO-3-N3 (biotin conjugate)
assay_name: pull-down binding Z-score (relative to library population); higher = stronger binding
measurement_setup: RNA library: Library-2
parameter: pull-down binding Z-score

Sample records with pull-down binding Z-score:
macromolecule_sequence	assay_system	pull-down binding Z-score
CCCACCUCCAGCAUUGGG [hsa-mir-1267]	TO-3-N3 (biotin conjugate)	-0.458
CCCCCAAUUAAAGUAGAUUGGGGG [hsa-mir-3153]	TO-3-N3 (biotin conjugate)	-0.415
UGCUAACUAAGGGCA	TO-3-N3 (biotin conjugate)	0.877
AACUUUAGCUUGUUUUGUGCUUGCUGCUGUU	TO-3-N3 (biotin conjugate)	0.701
UUUUCAUGACAACCCUAUAUGGGAAAAUGUUGUGAAAA [hsa-mir-3646]	TO-3-N3 (biotin conjugate)	-0.839
GAGAGUGUUCAGACAUUCUU [SHAPE_invivo_SARS-CoV-2_Motif_44]	TO-3-N3 (biotin conjugate)	0.913
GACAGCAGAUAUAGUUGUC	TO-3-N3 (biotin conjugate)	0.607
GUUUUACUAUGAUGAGGUGUGCCAUCCACCCCAUCAUAGUAAAC [hsa-mir-606]	TO-3-N3 (biotin conjugate)	-0.262

Give the measured pull-down binding Z-score for AGCACUUUGUGUUUUGUGAAAGAAAGUGCU [hsa-mir-516b-2] -0.647

Give the measured pull-down binding Z-score for CACGAGAUUGGGUUGUGCAGAGGCUGACACUUG [hsa-mir-5004] -0.363

Give the measured pull-down binding Z-score for GACGGCGCCCGCCCUGGCCCUGGC [hsa-mir-4745] 0.678

* * *

System: TO-N3-2 (biotin conjugate)
assay_name: pull-down binding Z-score (relative to library population); higher = stronger binding
measurement_setup: RNA library: Library-2
parameter: pull-down binding Z-score
Lab note: record the figure alone, no unit after it.

Sample records with pull-down binding Z-score:
macromolecule_sequence	pull-down binding Z-score
CACUAAAAAGUGGAAAUACCCACAAGUUAAUG	-0.609
CCUGACAGACAGCCUGAUAGACAGG [hsa-mir-4661]	0.908
ACAAGAUGAUAAGAAAAUCAAAGCUUGU	-0.969
UCGUCAGUGUUUGA [hsa-mir-8073]	-0.296
CUUUCUGUGACUUUAAAAGUAAG [hsa-mir-302b]	-0.999
CCUGACUUAAAUGGUGAUGUGGUGGCUAUUGAUUAUAAACACUACACACCCUCUUUUAAGAAAGG	-0.275
GUGAUGAACUGAAGAUUAAUGCGGCUUGUAGAAAGGUUCAACACAUGGUUGUUAAAGCUGCAUUAUUAGCAGACAAAUUCCCAGUUCUUCAC	0.059
CAGACAAUAUAGCUGAGUUUGUCUG [hsa-mir-215]	-1.03
CAGUAAGCCUUGACUUAUGGCUAAAUGCUUC [hsa-mir-4273]	0.273
GACUUCAGUAACUCAGGUUCUGAUGUU	-0.704

Give the measured pull-down binding Z-score for `GGCGAUAGUUGUAAUAACUAUAUGCU` -0.976

* * *

Tested on: TO-N3 (biotin conjugate)
assay_name: pull-down binding Z-score (relative to library population); higher = stronger binding
measurement_setup: RNA library: Library-2
parameter: pull-down binding Z-score

Sample records with pull-down binding Z-score:
macromolecule_sequence	assay_system	reported
UCCAUGAAAAGAACCCAUGGG [hsa-mir-4471]	TO-N3 (biotin conjugate)	-0.608
GUAUGAGUGGUGUGGAGUCUUCAUAA [hsa-mir-9-1]	TO-N3 (biotin conjugate)	0.292
CUCUGCUGUGUAAAUAGUUCUGAGUAGU [hsa-mir-454]	TO-N3 (biotin conjugate)	0.186
GCUGUGAGUUGGAUACUUACCUG [U1snRNP5ss-13]	TO-N3 (biotin conjugate)	0.947
UGGAUGUAAUUAUCUUGGCAAACCACGCGAACAAAUAGAUGGUUAUGUCAUGCAUGCA	TO-N3 (biotin conjugate)	-0.682

Give the measured pull-down binding Z-score for ACACUGGGCUGCCCCCACUGCCCAGUGC [hsa-mir-4277] 0.594

* * *

Tested on: TO-N3-2 (biotin conjugate)
assay_name: pull-down binding Z-score (relative to library population); higher = stronger binding
measurement_setup: RNA library: Library-2
# label = Met if pull-down binding Z-score >= 0.09 else Not met

Solved entries (count: 10):
macromolecule_sequence	cat
GAGACUUUGUGAUUUGUCUCCAAAGCCUC [hsa-mir-6862-2_6862-1]	Not met
AUAUUGACACUAUAACAAUAAUGUCAAUAU [hsa-mir-4795]	Not met
UGCUGUGCUGUGCUGAGCAGGGCUGAGCUG [hsa-mir-4539]	Met
AAUCAAAAAGAGUUGAUU [DMSMaPseq_invitro_SARS-CoV-2_Motif_439]	Not met
CCUGCCUGCCUGCCUG [r(CCUG)4]	Met
GGUUGGGAGAAGAGCAACAGCC [IAV_invivo_PB2_1_Motif_16+IAV_invivo_PB2_1_Motif_16]	Met
UGCAGUUCUGUUGGGUGACAGCA [hsa-mir-6499]	Met
GCCACGUAUAAACCAAAUACCUGGUGUAUACGUUGU	Not met
CUUUCCUCAGCUGAUUUCUUUCUGGGGAGAG [hsa-mir-5186]	Not met
AGAUGAGGGUGUCGGAUCAACU [hsa-mir-193a]	Met

Tell me whether pull-down binding Z-score is at least 0.09 here: UGUAUUUUUCAGCAAGGCAAGGGCUUUGAUGUCUUGUA [hsa-mir-8065] Not met

Tell me whether pull-down binding Z-score is at least 0.09 here: GAACCCAGGGAGCCAGACUGCCUGGGUUC [hsa-mir-607] Not met

Tell me whether pull-down binding Z-score is at least 0.09 here: `GUUGUCUUGAAAACUGGUGAUUUACAACCAUUAGAACAACCUACUAGUGAAGCUGUUGAAGCUCCAUUGGUUGGUACACCAGUUUGUAUUAAC` Not met

Tell me whether pull-down binding Z-score is at least 0.09 here: `GUGUAAAAGUGCCUUUUACAU` Not met

Tell me whether pull-down binding Z-score is at least 0.09 here: GGCUCCUGGCGCUGAUGCC [hsa-mir-6886] Met

Tell me whether pull-down binding Z-score is at least 0.09 here: UGGUGUUAGAAGGUCCUUUUAUGUCUAUGCUAAUGGAGGUAAAGGCUUUUGCAAACUA [SHAPE_invitro_SARS-CoV-2_Motif_149] Not met

Tell me whether pull-down binding Z-score is at least 0.09 here: CGCGGAGCAGCGCUGGGUGCAGCGCCUG [hsa-mir-4508] Met

* * *

System: G-clamp-N3 (biotin conjugate)
assay_name: pull-down binding Z-score (relative to library population); higher = stronger binding
measurement_setup: RNA library: Library-1 (pre-miRNA loops + repeats)
parameter: pull-down binding Z-score
Lab note: record the figure alone, no unit after it.

Sample records with pull-down binding Z-score:
macromolecule_sequence	assay_system	pull-down binding Z-score
GUCAGGUGAUGGUGAUAAGGUCAAGGCCUG [hsa-mir-6853]	G-clamp-N3 (biotin conjugate)	0.547
AUAGUUGUGGGGUAGUGAUUUUACCCUGUUCAGGAGAUAACUAU [hsa-let-7f-1]	G-clamp-N3 (biotin conjugate)	-0.471
AGCCUUCUAUUAUGCCCAGACAGGGCCACCAGAGGGCU [hsa-mir-4448]	G-clamp-N3 (biotin conjugate)	-0.731
GGGAGAGGGGCCCAGCUGACCCUCCUGUC [hsa-mir-6879]	G-clamp-N3 (biotin conjugate)	-0.867
AUCAUAAUAAAGGUGUCAUGAU [hsa-mir-3682]	G-clamp-N3 (biotin conjugate)	-0.55

Specify pull-down binding Z-score for CUGUGGUGGCUGCUUAUGCACCACGG [hsa-mir-105-2] , system G-clamp-N3 (biotin conjugate). 1.15

Specify pull-down binding Z-score for UGAAGAAGAGUAUUGAUUGUGCUGUUCG [hsa-mir-6788] , system G-clamp-N3 (biotin conjugate). 0.592

Specify pull-down binding Z-score for GGGUCAGGUCUGCAGCCUUGUAUCUGCUGAUCC [hsa-mir-6881] , system G-clamp-N3 (biotin conjugate). -0.0593

Specify pull-down binding Z-score for CCUCCCCCAGUGCCAGG [hsa-mir-3196] , system G-clamp-N3 (biotin conjugate). -0.591

Specify pull-down binding Z-score for UGGUUGAAUAUGUGAAUGGCAUCG [hsa-mir-449a] , system G-clamp-N3 (biotin conjugate). 0.694

Specify pull-down binding Z-score for GUGUGUUACCUAGAAAUAGCACU [hsa-mir-378a] , system G-clamp-N3 (biotin conjugate). -1.11

* * *

System: TO-N3 (biotin conjugate)
assay_name: pull-down binding Z-score (relative to library population); higher = stronger binding
measurement_setup: RNA library: Library-2
pull-down binding Z-score values by entry

Sample records with pull-down binding Z-score:
macromolecule_sequence	parameter	reported
AUCUUUCUGUGCUUUUGCUGUAGAUGCUGCUAAAGCUUACAAAGAU	pull-down binding Z-score	0.0426
AGUGUGCAGUCAUCCACACA [hsa-mir-4731]	pull-down binding Z-score	-0.519
CUGAUUGUCAUAUGUCGUUUGUGGGAUCCG [hsa-mir-340]	pull-down binding Z-score	-0.333
GCUAGCUCUUGGAGGUUCCGUGGCUAUAAAGAUAACAGAACAUUCUUGGAAUGCUGAUCUUUAUAAGCUCAUGGGACACUUCGCAUGGUGGACAGC	pull-down binding Z-score	0.974
UCCAGAGGCAUCCCUAACCCAGAAUCUUUUGACUGUCCUCUGGA [hsa-mir-4306]	pull-down binding Z-score	-0.253

Give the measured pull-down binding Z-score for CCCAGCCUUGGCGUUCAGGUGCUGAG [hsa-mir-3150b] -0.022

Give the measured pull-down binding Z-score for UGGCAAAGGGGUAGCUAAACAAUCUAUGUCUUUGCCA [hsa-mir-3119-1] -0.525

Give the measured pull-down binding Z-score for GCUGCACUGUCUCCGUCUGCGG [hsa-mir-4519] 0.595

Give the measured pull-down binding Z-score for CCGGCCCGUUAGUUGCCCGGGCCCG [hsa-mir-3181] -0.422

Give the measured pull-down binding Z-score for CUUCGCGCUAGUUUGUUUGUGUUAAG [hsa-mir-6077] -0.0943

Values compiled from the supplement of paper PMC11865577.
